assay: in vitro; details: human, hela cells, % viability
Listed here are compounds together with their documented viability at 28.5 h, 10 µM.
// units = %; emit number, no label

CCC(NC(=O)CCN1Cc2ccccc2C1=O)c1ccc(F)cc1 (stereo not shown) [CBK282657] | 104
CC(C)NC(=O)N[C@H]1CC[C@]2(CC1)CC(=O)c1ccccc1O2 [CBK283389] | 111
O=C(Cn1cnc(-c2noc(-c3cccnc3)n2)c1)Nc1ccc(Cl)cc1 [CBK287822] | 96.2
Cn1ncc2c(=O)n(Cc3nc(C(C)(C)C)no3)cnc21 [CBK304906] | 87.9

Which viability at 28.5 h, 10 µM is reported for this compound? O=C(O)c1cccc2c1C(=O)N(Cc1ccncc1)C2 [CBK291146]
80.6

Which viability at 28.5 h, 10 µM is reported for this compound? Cc1ccccc1C(=O)NC(=S)Nc1sc2c(c1C(N)=O)CCC2 [CBK262107]
88.9
